Source: patent US20120065221A1

- tested on: norepinephrine uptake (Rattus norvegicus, UniProt Q63380)
- Construct: [^3H]NE incorporation into rat hypothalamus synaptomsomes; from tissue; host or cells: rat hypothalamus synaptosomes
- Sequence (Q63380 1-617): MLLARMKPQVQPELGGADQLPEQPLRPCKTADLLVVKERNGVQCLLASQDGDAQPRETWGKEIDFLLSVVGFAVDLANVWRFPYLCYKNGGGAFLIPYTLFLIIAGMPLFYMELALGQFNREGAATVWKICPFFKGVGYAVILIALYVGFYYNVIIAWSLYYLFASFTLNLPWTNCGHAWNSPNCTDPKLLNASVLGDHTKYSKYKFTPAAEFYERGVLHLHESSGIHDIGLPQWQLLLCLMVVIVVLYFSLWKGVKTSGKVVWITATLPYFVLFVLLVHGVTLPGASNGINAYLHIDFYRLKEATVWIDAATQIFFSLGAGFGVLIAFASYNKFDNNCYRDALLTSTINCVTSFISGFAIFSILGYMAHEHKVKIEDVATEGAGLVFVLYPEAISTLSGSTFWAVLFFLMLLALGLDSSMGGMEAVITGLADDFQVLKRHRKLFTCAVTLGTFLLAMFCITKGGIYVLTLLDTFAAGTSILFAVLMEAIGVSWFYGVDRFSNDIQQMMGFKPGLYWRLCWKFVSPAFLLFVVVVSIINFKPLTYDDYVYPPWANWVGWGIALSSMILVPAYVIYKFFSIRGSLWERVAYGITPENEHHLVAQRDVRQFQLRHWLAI
- experiment notes: norepinephrine uptake assay
- Format: biochemical
- run parameters: IC50, expressed as levorphanol tartrate; rat hypothalamus synaptosomes
Structures can show the parent of a compound that is named as a salt.
measured endpoint: IC50
Hi, when you answer, please include the unit after the number. Thanks!

Param readout = IC50; param system = norepinephrine uptake (Rattus norvegicus, UniProt Q63380); param query = CN1CC[C@]23CCCC[C@H]2[C@H]1Cc1ccc(O)cc13 [Levorphanol Tartrate, dihydrate] ; response: value
2100 nM

###

- tested on: norepinephrine uptake (Rattus norvegicus)
- Construct: [^3H]NE incorporation into rat hypothalamus synaptomsomes; from tissue; host or cells: rat hypothalamus synaptosomes
- experiment notes: norepinephrine uptake assay
- Assay type: biochemical
- run parameters: IC50, expressed as levorphanol base; rat hypothalamus synaptosomes
- Experimental: This analysis was performed using validated proprietary software.
Where a name gives a salt, the structure may show the parent alone.
measured endpoint: IC50
Hi, when you answer, please include the unit after the number. Thanks!

Please give the measured IC50 for this compound: CN1CC[C@]23CCCC[C@H]2[C@H]1Cc1ccc(O)cc13 [Levorphanol Tartrate, dihydrate]
1220 nM
